Target: COX-2 (Homo sapiens)
Construct: Fresh blood was collected in tubes containing sodium heparin by vein puncture from healthy male volunteers; endogenous in cells; host or cells: human whole blood from healthy male volunteers, aspirin-pretreated and LPS-stimulated
Sequence (P35354 18-604): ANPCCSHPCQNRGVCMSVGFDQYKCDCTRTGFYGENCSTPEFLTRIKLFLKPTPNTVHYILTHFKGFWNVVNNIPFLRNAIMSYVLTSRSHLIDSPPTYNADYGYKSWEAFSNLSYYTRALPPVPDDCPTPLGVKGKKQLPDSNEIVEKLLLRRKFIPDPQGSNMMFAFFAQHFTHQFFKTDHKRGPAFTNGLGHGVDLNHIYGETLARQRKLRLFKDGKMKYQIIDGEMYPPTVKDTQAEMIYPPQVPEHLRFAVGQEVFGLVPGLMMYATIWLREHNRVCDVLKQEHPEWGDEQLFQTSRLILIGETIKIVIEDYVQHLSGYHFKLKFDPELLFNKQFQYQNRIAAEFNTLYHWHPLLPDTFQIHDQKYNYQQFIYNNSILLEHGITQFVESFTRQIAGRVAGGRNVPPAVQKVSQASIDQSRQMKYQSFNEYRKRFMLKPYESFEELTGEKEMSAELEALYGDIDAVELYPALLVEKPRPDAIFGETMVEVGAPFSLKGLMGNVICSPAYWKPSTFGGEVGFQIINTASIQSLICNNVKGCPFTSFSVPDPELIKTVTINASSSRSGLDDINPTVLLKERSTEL
Assay: Human whole blood assay (LPS-induced PGE2, COX-2 inhibition)
Type: cell-based
Settings: 10 μM, LPS stimulated
READOUT: inhibition at 10 µM (%)
One number for each entry, in %.

Sample answers from the record:
{"MOLECULE": "CSc1ccc(-n2c(-c3ccc(C(F)(F)F)cc3)nc3[nH]nc(N)c3c2=O)cc1 [Example 17]", "READOUT": "inhibition at 10 µM", "UNIT_DESCRIPTOR": "%", "NUMERIC_VALUE": 36.5}
{"MOLECULE": "CSc1ccc(-c2nc3[nH]nc(N)c3c(=O)n2-c2ccc(C)cc2)cc1 [Example 1]", "READOUT": "inhibition at 10 µM", "UNIT_DESCRIPTOR": "%", "NUMERIC_VALUE": 41.6}
{"MOLECULE": "CSc1ccc(-c2nc3[nH]nc(N)c3c(=O)n2-c2ccc(Cl)cc2)cc1 [Example 9]", "READOUT": "inhibition at 10 µM", "UNIT_DESCRIPTOR": "%", "NUMERIC_VALUE": 27.1}
{"MOLECULE": "Cc1ccc(-n2c(-c3ccc(S(C)(=O)=O)cc3)nc3[nH]nc(N)c3c2=O)cc1 [Example 14]", "READOUT": "inhibition at 10 µM", "UNIT_DESCRIPTOR": "%", "NUMERIC_VALUE": 23}
{"MOLECULE": "CSc1ccc(-n2c(-c3ccc(F)cc3)nc3[nH]nc(N)c3c2=O)cc1 [Example 5]", "READOUT": "inhibition at 10 µM", "UNIT_DESCRIPTOR": "%", "NUMERIC_VALUE": 31.8}

Give one value of inhibition at 10 µM per listed molecule.
1. CSc1ccc(-c2nc3[nH]nc(N)c3c(=O)n2-c2ccc(C(C)(C)C)cc2)cc1 [Example 6]
2. CSc1ccc(-n2c(-c3ccccc3)nc3[nH]nc(N)c3c2=O)cc1 [Example 11]
3. CSc1ccc(-c2nc3[nH]nc(N)c3c(=O)n2-c2ccc(C)c(C)c2)cc1 [Example 2]

*A*
37.7
29.2
16.8
